system: UO-31; experiment: NCI tumour cell line growth inhibition, 48 h
Active and inactive are the calls of the source. Cut-off read from the data, not from the text of the source: active = GI50 up to about 1.1 µM and inactive = higher.
MEASURED QUANTITY: GI50

Fill in GI50 for each of the 3 compounds listed.
1. Cn1c(=O)c2c(ncn2CCSS(=O)(=O)O)n(C)c1=O
2. COc1cccc(-c2cc(O)c3cccnc3n2)c1
3. COC(=O)C1=C(C)N(NC(N)=O)C2(N)N(NC(N)=O)C(C)=C(C(=O)OC)C12C#N (stereo not drawn)

Outgoing:
> 100 µM (inactive)
12.3 µM (inactive)
> 100 µM (inactive)

* * *

test system: SNB-75; assay: NCI tumour cell line growth inhibition, 48 h
Calls of active or inactive are those of the source. Cut-off read from the data, not from the text of the source: active = GI50 up to about 1.1 µM and inactive = higher.
Give one outcome, nothing more. List: YES for active, NO for inactive

Cc1nn(-c2ccccc2)c(C)c1/C=N/NC(=O)c1sc(=S)n(-c2ccccc2)c1N    YES
COCC1N=C(c2ccc(OC)c(OCc3ccccc3)c2OC)O[C@H]1c1ccccc1 (some centres not stated)    NO
O=C(Nc1ccccc1)N(C1=NCC(CI)S1)c1ccc(F)cc1F (configuration not stated)    NO

Incoming: Test call for this molecule, please: CC1(O)C(C)(O)C(C)(O)C1(C)O (configuration not stated)
Outgoing: NO

Incoming: Test call for this molecule, please: COC(=O)[C@]12CC3C=CC1N(C3)C(CBr)c1c2n(S(=O)(=O)c2ccccc2)c2ccccc12 (some centres not stated)
Outgoing: NO

Incoming: Test call for this molecule, please: COc1cccc(-c2nccc3c(OCc4ccccc4)c(OC)c(OC)cc23)c1
Outgoing: NO

Incoming: Test call for this molecule, please: O=C1c2ccccc2C(=O)N1CCn1nc(-c2ccccc2)cc(-c2ccccc2)c1=O
Outgoing: NO

* * *

tested on: XF498; assay: NCI tumour cell line growth inhibition, 48 h
Calls of active or inactive are those of the source. No stated cut-off is given here; in the data, active = GI50 up to about 1.1 µM and inactive = higher.
MEASURED QUANTITY: GI50

C#C[C@H]1CCCCCC1O (stereo partly drawn)    > 100 µM (inactive)

Fill in GI50 for each of the 2 molecules listed.
1. O=C(/C=C/c1ccccc1O)c1cccs1
2. N=c1oc2cc(O)c(O)cc2cc1C(N)=O

Outgoing:
["> 100 µM (inactive)", "> 100 µM (inactive)"]

* * *

tested on: HCT-116; assay: NCI tumour cell line growth inhibition, 48 h
Calls of active or inactive are those of the source. No stated cut-off is given here; in the data, active = GI50 up to about 1.1 µM and inactive = higher.
I'd appreciate it if you could supply GI50 values for the items below.

Solved cases below.
COc1cc2ccc3c4c(OC)cc(OC)c(OC)c4c([O-])[n+](C)c3c2cc1OC    11.5 µM (inactive)
O=C1c2ccccc2C(=O)N1CCn1nc(-c2ccccc2)cc(-c2ccccc2)c1=O    66.8 µM (inactive)

For record COc1ccc(N2C=Nn3c(nc4sc(C)c(C)c4c3=O)C2)cc1 the listed GI50 is > 100 µM (inactive)

* * *

system: PC-3; test: NCI tumour cell line growth inhibition, 48 h
Calls of active or inactive are those of the source. No stated cut-off is given here; in the data, active = GI50 up to about 1.1 µM and inactive = higher.
MEASURED QUANTITY: GI50

Solved cases below.
CCOc1ccc2nc(-c3ccc(O)cc3)sc2c1    58.7 µM (inactive)
NCCCN1CCN(CC(=O)O)CCN(CCCN)CCN(CC(=O)O)CC1    > 45.1 µM (inactive)
O=C(Nc1ccccc1)N(C1=NCC(CI)S1)c1ccc(F)cc1F (configuration not stated)    67.1 µM (inactive)

Fill in GI50 for each of the 5 molecules listed.
1. CSC(=S)N/N=C(\C)c1ccc(S(=O)(=O)N(C)c2ccccc2)cc1
2. CC1CN=C(Nc2ccc(F)c(Cl)c2)S1 (configuration not stated)
3. OCC1OC(n2nc(-c3ccccc3)nc2-c2cnccn2)C(O)C(O)C1O (configuration not stated)
4. O=C1Oc2ccccc2N/C1=C/C(=O)c1ccc([N+](=O)[O-])cc1
5. CC(C)=C1C(=O)C[C@]2(C)C[C@H]3/C(=C(/C)CCC12)CC[C@@]3(C)O (some centres not stated)

Outgoing:
1: 19.3 µM (inactive); 2: 72.4 µM (inactive); 3: > 100 µM (inactive); 4: 80.7 µM (inactive); 5: 30.7 µM (inactive)

Fill in GI50 for each of the 2 molecules listed.
1. COC(=O)C[C@H](COCc1ccccc1)NC(=O)C[C@H](COCc1ccccc1)NC(=O)OC(C)(C)C
2. O=C(CCN1CCOCC1)c1ccc(Oc2ccc(F)cc2)cc1

Outgoing:
["26.9 µM (inactive)", "19.2 µM (inactive)"]

Fill in GI50 for each of the 2 molecules listed.
1. CC(C)CNC(=O)Cn1c2c(c3ccccc31)CCCC2
2. CCOC1=NC(C(F)(F)F)(C(F)(F)F)N=C(/N=C(/N)N(C)C(C(C)C)P(=O)(OC(C)C)OC(C)C)O1 (configuration not stated)

Outgoing:
1. 58.5 µM (inactive)
2. > 100 µM (inactive)

* * *

system: CCRF-CEM; assay: NCI tumour cell line growth inhibition, 48 h
Active and inactive are the calls of the source. No stated cut-off is given here; in the data, active = GI50 up to about 1.1 µM and inactive = higher.
MEASURED QUANTITY: GI50

Solved cases below.
CC1(C(=O)O)CCC2(C)CCC3(C)C(=CC(=O)C4C5(C)CCC(O)C(C)(C)C5CCC43C)C2C1 (stereo unspecified)    30.9 µM (inactive)
C=CCOC1=C(OC(C)=O)C(C2COC(C)(C)O2)OC1=O (stereo unspecified)    17.4 µM (inactive)
C=CCNC(=O)NNC(O)(C(=O)OCC)C(F)(F)F (stereo unspecified)    > 100 µM (inactive)

Fill in GI50 for each of the 3 molecules listed.
1. O=C1NN=C(c2ccc([N+](=O)[O-])cc2)C1n1nc(-c2ccccc2)c2ccccc2c1=O (stereo unspecified)
2. N#Cc1cccc(/C=N/C23CC4CC(CC(C4)C2)C3)c1
3. OCCc1ccsc1-c1sc(-c2cc(CCO)c(-c3sc(-c4cc(CCO)c(-c5sccc5CCO)s4)cc3CCO)s2)cc1CCO

Outgoing:
1: > 65.5 µM (inactive); 2: 62.5 µM (inactive); 3: 0.647 µM (active)

Fill in GI50 for each of the 7 molecules listed.
1. O=C(/C=C/c1ccc(O)cc1)OC[C@@H](O)COC1OC(CO)C(O)C(O)C1O (stereo partly specified)
2. Cc1cn(CCC(N)C(=O)O)c(=O)[nH]c1=O (stereo unspecified)
3. COc1cccc(N2C(=O)CSC2c2c[nH]c3ccccc23)c1 (stereo unspecified)
4. Cc1ccc(-n2cc(-c3ccc(Cl)cc3)c3c(=N)n(N)cnc32)cc1
5. C1=CC(=NN=P(c2ccccc2)(c2ccccc2)c2ccccc2)C=C1
6. COc1cc(/C=N/N=C(\N)NO)cc(OC)c1OC
7. NCCCC[C@H](N)C(=O)Nc1ccc(-c2nc3ccccc3s2)cc1Cl

Outgoing:
1. > 100 µM (inactive)
2. > 100 µM (inactive)
3. > 100 µM (inactive)
4. 11.3 µM (inactive)
5. > 100 µM (inactive)
6. 31.8 µM (inactive)
7. 3.28 µM (inactive)

Fill in GI50 for each of the 7 molecules listed.
1. Cn1c(O)c(C2=Nc3ccccc3C2=O)c2ccccc21
2. O=C1Oc2ccccc2C(=O)/C1=C1/C=C(c2ccccc2)SS1
3. COCC1N=C(c2ccc(OC)c(OCc3ccccc3)c2OC)O[C@H]1c1ccccc1 (stereo partly specified)
4. CCOC(=O)c1ncoc1[C@H]1COC(C)(C)O1
5. NNC1=Nc2ccc(Cl)cc2C(=S)N2CSCC12 (stereo unspecified)
6. ClC1=C(Cc2ccccc2)Cc2ccc3c(c21)CCC3
7. CC[S+]1C2=C(CC(C)(C)CC2=O)[N-]c2ccccc21 (stereo unspecified)

Outgoing:
> 100 µM (inactive)
22.6 µM (inactive)
15.3 µM (inactive)
> 100 µM (inactive)
> 100 µM (inactive)
27.9 µM (inactive)
> 100 µM (inactive)

For record CN(Cc1cnc2nc(N)nc(N)c2n1)c1ccc(C(=O)NC(CCC(=O)NCCC(P(=O)(O)O)P(=O)(O)O)C(=O)O)cc1 (stereo unspecified) the listed GI50 is 6.08 µM (inactive)

* * *

tested on: RPMI-8226; test: NCI tumour cell line growth inhibition, 48 h
Activity calls are given as the source filed them. No stated cut-off is given here; in the data, active = GI50 up to about 1.1 µM and inactive = higher.
Give one outcome, nothing more. List: active, inactive

CC[S+]1C2=C(CC(C)(C)CC2=O)[N-]c2ccccc21 (centres undefined)    inactive
BrC1=CCC23CC=C(Br)[C@H]4CC2(COC3)C[C@@H]1O4 (some centres undefined)    inactive
Cc1c(-c2ccccc2)c(C#N)c2nnn(-c3ccccc3)c(=O)n12    inactive
CCC(C)NC1=NCC(C)S1 (centres undefined)    inactive
CCC1=NC(CO)[C@H](c2ccccc2)O1 (some centres undefined)    inactive
CC1C=C(OC(=O)c2ccccc2)C(=O)C(n2cc(F)c(=O)n(C(=O)c3ccccc3)c2=O)O1 (centres undefined)    inactive
C=C1C(=O)O[C@H]2C(=O)[C@H](C)CCC[C@@](C)(O)/C=C\C[C@@]3(C)O[C@@H]3C[C@@H]12    inactive
NC(CCc1ncc(C(=O)O)s1)C(=O)O (centres undefined)    inactive

Incoming: Test call for this molecule, please: CN1N=C(c2ccncc2)OC1c1cccc(F)c1 (centres undefined)
Outgoing: inactive

Incoming: Test call for this molecule, please: CCOC(=O)C(NC(=O)c1nc[nH]c1/N=N/N(C)C)C(C)C (centres undefined)
Outgoing: inactive

Incoming: Test call for this molecule, please: c1ccc(N2N=C(c3ccco3)CC2c2ccco2)cc1 (centres undefined)
Outgoing: inactive

Incoming: Test call for this molecule, please: Cn1c(=O)c2c(ncn2CCSS(=O)(=O)O)n(C)c1=O
Outgoing: inactive

Incoming: Test call for this molecule, please: CON1C(=O)C2(CCCCC2)C(=O)C12C=CC(C)CC2 (centres undefined)
Outgoing: inactive

Incoming: Test call for this molecule, please: CC(C)(C)OC(=O)NCC(=O)N(CCc1ccc(Cl)c(Cl)c1)CCN1CCCC1
Outgoing: inactive

Incoming: Test call for this molecule, please: CCCCCCCCCCCCCCN [TETRADECYLAMINE]
Outgoing: inactive

Incoming: Test call for this molecule, please: COC(=O)c1c(C)[nH]c2c1cc(O)c1nc(C)c(C)nc12
Outgoing: inactive

Incoming: Test call for this molecule, please: C=CCOC1=C(OC(C)=O)C(C2COC(C)(C)O2)OC1=O (centres undefined)
Outgoing: inactive

Incoming: Test call for this molecule, please: C1=CC(=NN=P(c2ccccc2)(c2ccccc2)c2ccccc2)C=C1
Outgoing: inactive

Incoming: Test call for this molecule, please: CCCCCCCC/C=C\CCCCCCCC(=O)O [OLEIC ACID]
Outgoing: inactive

Incoming: Test call for this molecule, please: Cc1nc(-c2nc([N+](=O)[O-])c([N+](=O)[O-])[nH]2)cs1
Outgoing: inactive

Incoming: Test call for this molecule, please: C=C(C)C(=O)OC1C(C(C)CCCO)=C(CO)CC2OC(=O)C(=C)C21 (centres undefined)
Outgoing: inactive
